System: MDAMB157
protocol_details: -log10 GI50 (growth inhibition 50%) (-log10(M)); higher = more potent growth inhibition
Tag: Satisfied if measured -log10 GI50 is not below 5, Not satisfied if it is.

Use the examples below as a reference point.
CCCC(CCC)C(=O)O; Not satisfied
CO[C@H]1C[C@@H]2CC[C@@H](C)[C@@](O)(O2)C(=O)C(=O)N2CCCC[C@H]2C(=O)O[C@H]([C@H](C)C[C@@H]2CC[C@@H](OC(=O)C(C)(CO)CO)[C@H](OC)C2)CC(=O)[C@H](C)/C=C(\C)[C@@H](O)[C@@H](OC)C(=O)[C@H](C)C[C@H](C)/C=C/C=C/C=C/1C; Not satisfied
O=C(c1ccc(Nc2nccc(-c3cc4ccccc4s3)n2)cc1)N1CCC(N2CCCC2)CC1; Satisfied
CC(C)C[C@@H](C=O)NC(=O)[C@H](CC(C)C)NC(=O)[C@H](CC(C)C)NC(=O)OCc1ccccc1; Satisfied
COc1cc2ncnc(Nc3cccc(Cl)c3)c2cc1OC; Not satisfied
O=C1NC(=O)/C(=C/c2ccc3nccc(-c4ccncc4)c3c2)S1; Satisfied

Below: the item to evaluate.
Prompt: Entry Cc1ccc(NC(=O)c2ccc(CN3CCN(C)CC3)cc2)cc1Nc1nccc(-c2cccnc2)n1 : is its -log10 GI50 no less than 5?
Completion: Not satisfied
